Target: Muscarinic acetylcholine receptor M1 and M3 (Homo sapiens) (UniProt P20309+P11229)
Sequence (P11229 whole entry, looked up): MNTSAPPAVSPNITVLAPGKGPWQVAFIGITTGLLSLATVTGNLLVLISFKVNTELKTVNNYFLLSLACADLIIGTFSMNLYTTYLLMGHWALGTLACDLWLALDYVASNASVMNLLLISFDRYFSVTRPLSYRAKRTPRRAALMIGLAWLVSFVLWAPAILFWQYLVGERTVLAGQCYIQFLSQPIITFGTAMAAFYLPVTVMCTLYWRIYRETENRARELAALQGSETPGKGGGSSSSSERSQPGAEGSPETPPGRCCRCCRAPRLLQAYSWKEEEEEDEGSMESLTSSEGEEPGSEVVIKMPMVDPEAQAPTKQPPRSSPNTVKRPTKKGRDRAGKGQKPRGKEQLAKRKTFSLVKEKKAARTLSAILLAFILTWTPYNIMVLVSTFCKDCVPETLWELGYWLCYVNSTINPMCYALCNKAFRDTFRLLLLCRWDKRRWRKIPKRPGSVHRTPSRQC
Sequence (P20309 whole entry, looked up): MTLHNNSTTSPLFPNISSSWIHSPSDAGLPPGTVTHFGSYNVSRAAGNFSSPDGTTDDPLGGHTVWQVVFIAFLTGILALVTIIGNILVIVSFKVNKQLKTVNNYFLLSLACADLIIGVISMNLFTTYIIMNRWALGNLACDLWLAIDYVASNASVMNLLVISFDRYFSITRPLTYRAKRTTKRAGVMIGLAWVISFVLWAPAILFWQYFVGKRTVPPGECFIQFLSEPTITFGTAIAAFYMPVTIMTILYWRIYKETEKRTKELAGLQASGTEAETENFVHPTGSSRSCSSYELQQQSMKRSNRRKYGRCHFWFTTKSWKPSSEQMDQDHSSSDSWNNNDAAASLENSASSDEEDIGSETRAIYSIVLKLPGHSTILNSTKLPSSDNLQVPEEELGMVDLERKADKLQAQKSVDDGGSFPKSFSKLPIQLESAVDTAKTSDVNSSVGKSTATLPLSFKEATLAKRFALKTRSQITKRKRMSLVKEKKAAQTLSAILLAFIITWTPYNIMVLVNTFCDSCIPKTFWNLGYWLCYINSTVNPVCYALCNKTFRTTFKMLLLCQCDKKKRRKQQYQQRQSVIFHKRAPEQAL
Test: Selectivity for human muscarinic acetylcholine M3 receptor over human muscarinic acetylcholine M1 receptor
quantity-name: Selectivity ratio

• Cc1cn2cc(CNC(=O)[C@H](Cc3ccc(O)cc3)NC(=O)Nc3ccc(C(=O)OC4CCCCC4)s3)[n+](Cc3ccc4ccccc4c3)c2s1.[I-] = 25
• Cc1cn2cc(CNC(=O)[C@H](Cc3ccc(O)cc3)NC(=O)Nc3ccc(C(=O)OC(C)C)cc3)[n+](Cc3ccc4ccccc4c3)c2s1.O=C([O-])C(F)(F)F = 30
• CCOC(=O)c1ccc(NC(=O)N[C@@H](Cc2ccc(O)cc2)C(=O)NC2CCN(Cc3ccc(O)cc3)C2)cc1 (some centres undefined) = 100
• CCOC(=O)c1ccc(NC(=O)N[C@@H](Cc2ccc(O)cc2)C(=O)N[C@H]2CCN(Cc3ccc(O)cc3)C2)cc1 = 80
